The measured values listed here are drawn from patent EP4759807A1.

- measured target: IRAK4 (Homo sapiens)
- Sequence (Q9NWZ3 1-460): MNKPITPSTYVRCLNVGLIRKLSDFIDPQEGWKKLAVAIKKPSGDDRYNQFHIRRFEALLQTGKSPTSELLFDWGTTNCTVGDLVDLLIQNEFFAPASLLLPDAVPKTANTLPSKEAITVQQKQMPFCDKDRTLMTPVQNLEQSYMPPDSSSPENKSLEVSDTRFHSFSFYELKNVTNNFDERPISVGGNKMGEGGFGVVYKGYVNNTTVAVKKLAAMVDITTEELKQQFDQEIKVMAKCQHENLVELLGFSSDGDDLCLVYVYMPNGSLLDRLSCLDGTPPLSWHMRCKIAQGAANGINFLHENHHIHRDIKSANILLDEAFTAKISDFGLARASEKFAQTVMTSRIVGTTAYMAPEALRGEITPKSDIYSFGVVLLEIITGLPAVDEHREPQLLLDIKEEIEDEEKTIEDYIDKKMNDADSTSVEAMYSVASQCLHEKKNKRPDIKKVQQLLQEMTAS
- measurement description: Hibit fluorescence detection of proteolysis (IRAK4-HiBiT in HEK293T cells)
- Format: cell-based
- Parameters: host or cells: HEK293T (ATCC)
- study conditions: IRAK4-HiBiT, HEK293T cells, 24 h
The compounds listed here are annotated with their DC50.

{"columns": ["compound", "DC50"],
 "data": [
  ["Cn1c(=O)n(C2CCC(=O)NC2=O)c2cccc(CCCN3CCOC(CNCC4CCC(n5cc(-n6cc(-c7cnn8ccc(N9CCOCC9)nc78)nn6)c(C(F)F)n5)CC4)C3)c21 (stereo not shown)", "< 0.5 nM"],
  ["Cn1c(=O)n(C2CCC(=O)NC2=O)c2cccc(N3CCC(N4CCN(C[C@H]5CC[C@H](n6cc(-n7cc(-n8ccc9cc(C(N)=O)cnc98)nn7)c(C(F)F)n6)CC5)CC4)CC3)c21 (stereo partly shown)", "< 0.5 nM"],
  ["Cn1c(=O)n(C2CCC(=O)NC2=O)c2cccc(N3CCC4(CCN(C[C@H]5CC[C@H](n6cc(-n7cc(-c8cnn9ccc(N%10CCC[C@H](N)C%10)nc89)nn7)c(C(F)F)n6)CC5)CC4)C3)c21 (stereo partly shown)", "0.5 to 1 nM"],
  ["Cn1c(=O)n(C2CCC(=O)NC2=O)c2cccc(N3CCC(N4CCN(C[C@H]5CC[C@H](n6cc(-n7cc(-c8cnn9ccc(N%10CCOCC%10)nc89)nn7)c(C(F)F)n6)CC5)CC4)CC3)c21 (stereo partly shown)", "< 0.5 nM"],
  ["Cn1c(=O)n(C2CCC(=O)NC2=O)c2cccc(CN3CCC4(CC3)CN(C[C@H]3CC[C@H](n5cc(-n6cc(-c7cnn8ccc(N9CCOCC9)nc78)nn6)c(C(F)F)n5)CC3)C4)c21 (stereo partly shown)", "0.5 to 1 nM"],
  ["Cn1c(=O)n(C2CCC(=O)NC2=O)c2cccc(C3CN(C4CCN(C[C@H]5CC[C@H](n6cc(-n7cc(-c8ccc9cc(C(N)=O)cnn89)nn7)c(C(F)F)n6)CC5)CC4)C3)c21 (stereo partly shown)", "< 0.5 nM"],
  ["Cn1c(=O)n(C2CCC(=O)NC2=O)c2cccc(N3CCN(C[C@H]4CC[C@H](n5cc(-n6cc(-c7cnn8ccc(N9CCC[C@@H](O)C9)nc78)nn6)c(C(F)F)n5)CC4)CC3)c21 (stereo partly shown)", "< 0.5 nM"],
  ["Cn1c(=O)n(C2CCC(=O)NC2=O)c2cccc(N[C@H]3CC[C@H](N(C)C[C@H]4CC[C@H](n5cc(-n6cc(-c7ccc8cc(C(N)=O)cnn78)nn6)c(C(F)F)n5)CC4)CC3)c21 (stereo partly shown)", "< 0.5 nM"],
  ["C[C@@H]1CN(c2cccc3c2n(C)c(=O)n3C2CCC(=O)NC2=O)CCN1C[C@H]1CC[C@H](n2cc(-n3cc(-c4cnn5ccc(N6CCOCC6)nc45)nn3)c(C(F)F)n2)CC1 (stereo partly shown)", "0.5 to 1 nM"],
  ["Cn1c(=O)n(C2CCC(=O)NC2=O)c2cccc(N3CCC4(CC3)CN(C[C@H]3CC[C@H](n5cc(-n6cc(-c7ccc8cc(C(N)=O)cnn78)nn6)c(C(F)F)n5)CC3)CCO4)c21 (stereo partly shown)", "0.5 to 1 nM"],
  ["Cn1c(=O)n(C2CCC(=O)NC2=O)c2cccc(N[C@H]3CC[C@@H](N(C)C[C@H]4CC[C@H](n5cc(-n6cc(-c7cnn8ccc(N9CCOCC9)nc78)nn6)c(C(F)F)n5)CC4)CC3)c21 (stereo partly shown)", "< 0.5 nM"],
  ["Cn1c(=O)n(C2CCC(=O)NC2=O)c2cccc(N3CCC4(CCN(C[C@H]5CC[C@H](n6cc(-n7cc(-c8cnn9ccc(NCCC(C)(C)O)nc89)nn7)c(C(F)F)n6)CC5)CC4)CC3)c21 (stereo partly shown)", "< 0.5 nM"],
  ["Cn1c(=O)n(C2CCC(=O)NC2=O)c2cccc(N3CCC4(CC3)CN(C[C@H]3CC[C@H](n5cc(-n6cc(-c7cnn8ccc(N9CCOCC9)nc78)nn6)c(C(F)F)n5)CC3)C4)c21 (stereo partly shown)", "< 0.5 nM"],
  ["Cn1c(=O)n(C2CCC(=O)NC2=O)c2cccc(CN3CCN(C[C@H]4CC[C@H](n5cc(-n6cc(-c7ccc8cc(C(N)=O)cnn78)nn6)c(C(F)F)n5)CC4)CC3)c21 (stereo partly shown)", "< 0.5 nM"],
  ["Cn1c(=O)n(C2CCC(=O)NC2=O)c2cccc(N3CCN(C[C@H]4CC[C@H](n5cc(-n6cc(-n7ccc8cc(C(N)=O)cnc87)nn6)c(C(F)F)n5)CC4)CC3)c21 (stereo partly shown)", "0.5 to 1 nM"],
  ["Cn1c(=O)n(C2CCC(=O)NC2=O)c2cccc(N3CCN(C4CCN(C[C@H]5CC[C@H](n6cc(-n7cc(-c8cnn9ccc(N%10CCC[C@@H](O)C%10)nc89)nn7)c(C(F)F)n6)CC5)CC4)CC3)c21 (stereo partly shown)", "< 0.5 nM"],
  ["Cn1c(=O)n(C2CCC(=O)NC2=O)c2cccc(N3CCC4(CCN(C[C@H]5CC[C@H](n6cc(-n7cc(-c8cnn9ccc(N%10CCC(O)CC%10)nc89)nn7)c(C(F)F)n6)CC5)CC4)CC3)c21 (stereo partly shown)", "< 0.5 nM"],
  ["Cn1c(=O)n(C2CCC(=O)NC2=O)c2cccc(N3CCN(C4CN(C[C@H]5CC[C@H](n6cc(-n7cc(-c8ccc9cc(C(N)=O)cnn89)nn7)c(C(F)F)n6)CC5)C4)CC3)c21 (stereo partly shown)", "< 0.5 nM"],
  ["C[C@H]1CN(c2cccc3c2n(C)c(=O)n3C2CCC(=O)NC2=O)CCN1C[C@H]1CC[C@H](n2cc(-n3cc(-c4cnn5ccc(N6CCOCC6)nc45)nn3)c(C(F)F)n2)CC1 (stereo partly shown)", "0.5 to 1 nM"]
]}
